# Assay Method Text: Pharmacokinetics after single intravenous administration of the SaTSS standardized fraction (plasma, HPLC, PKSolver)
# Type: in vivo, ICR mice
# Recorded Conditions: ICR, mouse, plasma, iv, 400 mg/kg, intravenous 400 mg/kg SaTES fraction, Two-Compartment Model; read-out: Vss
# Protocol: Analyses of HPLC were carried out in a Waters system (2695 Separation module) coupled to a diode array detector (2996) with a 190–600-nm detection range and operated by the Manager Millennium software system (Empower 1; Waters Corporation, Mexico City, Mexico). Separations were performed in a Spherisorb-ODS RP-18 column (250 × 4.6 mm, 5 µm; Waters Corporation, Mexico) employing a constant temperature of 25 °C during the analyses. […]
Value Kind: Vd (L/kg)

In [3]: df
Out[3]:
                                   compound  value_kind  value_reported
0  COc1c(C)cc2c(C(C)C)cc(C(=O)O)c(O)c2c1O [Sphaeralcic acid, sphaeralcic acid]          Vd           0.826

// data source = paper PMC8308911
